Tested on: Blautia producta
Experiment: Antimicrobial activity against Ruminococcus productus by Wadsworth agar dilution method
Assay type: functional
// reported MIC90 per item

[[record]]
compound = "NC[C@@H]1O[C@H](O[C@H]2[C@@H](O)[C@H](O[C@@H]3[C@@H](O)[C@H](N)C[C@H](N)[C@H]3O[C@H]3O[C@H](CN)[C@@H](O)[C@H](O)[C@H]3N)O[C@@H]2CO)[C@H](N)[C@@H](O)[C@@H]1O"
experimental_endpoint = "MIC90"
recorded_measurement = "512 µg/mL"


Per the record, CN[C@H](CC(C)C)C(=O)N[C@H]1C(=O)N[C@@H](CC(N)=O)C(=O)N[C@H]2C(=O)N[C@H]3C(=O)N[C@H](C(=O)N[C@H](C(=O)O)c4cc(O)cc(O)c4-c4cc3ccc4O)[C@H](O)c3ccc(c(Cl)c3)Oc3cc2cc(c3O[C@@H]2O[C@H](CO)[C@@H](O)[C@H](O)[C@H]2O[C@H]2C[C@](C)(N)[C@H](O)[C@H](C)O2)Oc2ccc(cc2Cl)[C@H]1O has MIC90 of 1 µg/mL

Per the record, CC(=O)Oc1ccccc1C(=O)Nc1ncc([N+](=O)[O-])s1 [NITAZOXANIDE] has MIC90 of 1 µg/mL

Per the record, CO[C@H]1/C=C/O[C@@]2(C)Oc3c(C)c(O)c4c(O)c(c5c(nc6cc(C)ccn65)c4c3C2=O)NC(=O)/C(C)=C\C=C\[C@H](C)[C@H](O)[C@@H](C)[C@@H](O)[C@@H](C)[C@H](OC(C)=O)[C@@H]1C has MIC90 of 4 µg/mL

###

System: Clostridium perfringens
Test: Antimicrobial activity against Clostridium perfringens by Wadsworth agar dilution method
Type: functional
// reported MIC50 per item
Numbers only here, please. The scale is µg/mL.

A selection of reference data follows.
[[record]]
compound = "NC[C@@H]1O[C@H](O[C@H]2[C@@H](O)[C@H](O[C@@H]3[C@@H](O)[C@H](N)C[C@H](N)[C@H]3O[C@H]3O[C@H](CN)[C@@H](O)[C@H](O)[C@H]3N)O[C@@H]2CO)[C@H](N)[C@@H](O)[C@@H]1O [FRAMYCETIN]"
experimental_endpoint = "MIC50"
recorded_measurement = 1020

[[record]]
compound = "CO[C@H]1/C=C/O[C@@]2(C)Oc3c(C)c(O)c4c(O)c(c5c(nc6cc(C)ccn65)c4c3C2=O)NC(=O)/C(C)=C\\C=C\\[C@H](C)[C@H](O)[C@@H](C)[C@@H](O)[C@@H](C)[C@H](OC(C)=O)[C@@H]1C [RIFAXIMIN]"
experimental_endpoint = "MIC50"
recorded_measurement = 0.25

[[record]]
compound = "CC(=O)Oc1ccccc1C(=O)Nc1ncc([N+](=O)[O-])s1 [NITAZOXANIDE]"
experimental_endpoint = "MIC50"
recorded_measurement = 2


Lab note: next compound to report on.
Per the record, CN[C@H](CC(C)C)C(=O)N[C@H]1C(=O)N[C@@H](CC(N)=O)C(=O)N[C@H]2C(=O)N[C@H]3C(=O)N[C@H](C(=O)N[C@H](C(=O)O)c4cc(O)cc(O)c4-c4cc3ccc4O)[C@H](O)c3ccc(c(Cl)c3)Oc3cc2cc(c3O[C@@H]2O[C@H](CO)[C@@H](O)[C@H](O)[C@H]2O[C@H]2C[C@](C)(N)[C@H](O)[C@H](C)O2)Oc2ccc(cc2Cl)[C@H]1O [VANCOMYCIN] has MIC50 of 1

###

Test system: Bacteroides stercoris
Experiment: Antimicrobial activity against Bacteroides stercoris by Wadsworth agar dilution method
Assay type: functional
// reported MIC50 per item
Numbers only here, please. The scale is µg/mL.

A selection of reference data follows.
[[record]]
compound = "CN[C@H](CC(C)C)C(=O)N[C@H]1C(=O)N[C@@H](CC(N)=O)C(=O)N[C@H]2C(=O)N[C@H]3C(=O)N[C@H](C(=O)N[C@H](C(=O)O)c4cc(O)cc(O)c4-c4cc3ccc4O)[C@H](O)c3ccc(c(Cl)c3)Oc3cc2cc(c3O[C@@H]2O[C@H](CO)[C@@H](O)[C@H](O)[C@H]2O[C@H]2C[C@](C)(N)[C@H](O)[C@H](C)O2)Oc2ccc(cc2Cl)[C@H]1O"
measured_target = "Bacteroides stercoris"
experimental_endpoint = "MIC50"
recorded_measurement = 64

[[record]]
compound = "CC(=O)Oc1ccccc1C(=O)Nc1ncc([N+](=O)[O-])s1 [NITAZOXANIDE]"
measured_target = "Bacteroides stercoris"
experimental_endpoint = "MIC50"
recorded_measurement = 4


Lab note: next compound to report on.
Bacteroides stercoris data for CO[C@H]1/C=C/O[C@@]2(C)Oc3c(C)c(O)c4c(O)c(c5c(nc6cc(C)ccn65)c4c3C2=O)NC(=O)/C(C)=C\C=C\[C@H](C)[C@H](O)[C@@H](C)[C@@H](O)[C@@H](C)[C@H](OC(C)=O)[C@@H]1C ; its MIC50: 0.25

###

System: Desulfovibrio sp.
Experiment: Antimicrobial activity against Desulfovibrio sp. by Wadsworth agar dilution method
Assay type: functional
// reported MIC50 per item
Numbers only here, please. The scale is µg/mL.

[[record]]
molecule = "CO[C@H]1/C=C/O[C@@]2(C)Oc3c(C)c(O)c4c(O)c(c5c(nc6cc(C)ccn65)c4c3C2=O)NC(=O)/C(C)=C\\C=C\\[C@H](C)[C@H](O)[C@@H](C)[C@@H](O)[C@@H](C)[C@H](OC(C)=O)[C@@H]1C [RIFAXIMIN]"
recorded_measurement = 16

[[record]]
molecule = "NC[C@@H]1O[C@H](O[C@H]2[C@@H](O)[C@H](O[C@@H]3[C@@H](O)[C@H](N)C[C@H](N)[C@H]3O[C@H]3O[C@H](CN)[C@@H](O)[C@H](O)[C@H]3N)O[C@@H]2CO)[C@H](N)[C@@H](O)[C@@H]1O [FRAMYCETIN]"
recorded_measurement = 256


Lab note: next molecule to report on.
Per the record, CC(=O)Oc1ccccc1C(=O)Nc1ncc([N+](=O)[O-])s1 [NITAZOXANIDE] has MIC50 of 1

###

// reported MIC90 per item
Test system: Porphyromonas asaccharolytica
Assay: Antimicrobial activity against Porphyromonas asaccharolyticus by Wadsworth agar dilution method
Assay type: functional
Numbers only here, please. The scale is µg/mL.

[[record]]
compound = "CO[C@H]1/C=C/O[C@@]2(C)Oc3c(C)c(O)c4c(O)c(c5c(nc6cc(C)ccn65)c4c3C2=O)NC(=O)/C(C)=C\\C=C\\[C@H](C)[C@H](O)[C@@H](C)[C@@H](O)[C@@H](C)[C@H](OC(C)=O)[C@@H]1C [RIFAXIMIN]"
experimental_endpoint = "MIC90"
readout_unit = "µg/mL"
recorded_measurement = 0.5

[[record]]
compound = "CC(=O)Oc1ccccc1C(=O)Nc1ncc([N+](=O)[O-])s1 [NITAZOXANIDE]"
experimental_endpoint = "MIC90"
readout_unit = "µg/mL"
recorded_measurement = 1


Lab note: next compound to report on.
Per the record, CN[C@H](CC(C)C)C(=O)N[C@H]1C(=O)N[C@@H](CC(N)=O)C(=O)N[C@H]2C(=O)N[C@H]3C(=O)N[C@H](C(=O)N[C@H](C(=O)O)c4cc(O)cc(O)c4-c4cc3ccc4O)[C@H](O)c3ccc(c(Cl)c3)Oc3cc2cc(c3O[C@@H]2O[C@H](CO)[C@@H](O)[C@H](O)[C@H]2O[C@H]2C[C@](C)(N)[C@H](O)[C@H](C)O2)Oc2ccc(cc2Cl)[C@H]1O [VANCOMYCIN] has MIC90 of 8

###

System: Flavonifractor plautii
Assay: Antimicrobial activity against Clostridium orbiscindens by Wadsworth agar dilution method
Format: functional
EXPERIMENTAL ENDPOINT: MIC50 (µg/mL)
Numbers only here, please. The scale is µg/mL.

Per the record, CN[C@H](CC(C)C)C(=O)N[C@H]1C(=O)N[C@@H](CC(N)=O)C(=O)N[C@H]2C(=O)N[C@H]3C(=O)N[C@H](C(=O)N[C@H](C(=O)O)c4cc(O)cc(O)c4-c4cc3ccc4O)[C@H](O)c3ccc(c(Cl)c3)Oc3cc2cc(c3O[C@@H]2O[C@H](CO)[C@@H](O)[C@H](O)[C@H]2O[C@H]2C[C@](C)(N)[C@H](O)[C@H](C)O2)Oc2ccc(cc2Cl)[C@H]1O has MIC50 of 8

Per the record, CC(=O)Oc1ccccc1C(=O)Nc1ncc([N+](=O)[O-])s1 [NITAZOXANIDE] has MIC50 of 0.25

Per the record, NC[C@@H]1O[C@H](O[C@H]2[C@@H](O)[C@H](O[C@@H]3[C@@H](O)[C@H](N)C[C@H](N)[C@H]3O[C@H]3O[C@H](CN)[C@@H](O)[C@H](O)[C@H]3N)O[C@@H]2CO)[C@H](N)[C@@H](O)[C@@H]1O has MIC50 of 256
